These entries and their values trace back to ChEMBL document CHEMBL3885861.

Please go through the items and note down their MCH.
species: Rattus norvegicus; experiment: Open TG-GATES - Regimen: Single; format: toxicity, organism-based, Sprague-Dawley; parameters: regimen Single, gender Male, age 6 weeks; conditions: in vivo, po, 0 mg/kg, 6 h, tissue Blood, route gavage, dose level Control

Read the entry O=c1ccc2ccccc2o1 and write its reported MCH.
21.8 pg

// Input: O=C(O)c1ccccc1Nc1ccccc1 . Output its MCH only.
20.7 pg

// fetch MCH given entry CCN(CC)C(=S)SSC(=S)N(CC)CC
20.1 pg

Give recorded MCH. CN(C/C=C/C#CC(C)(C)C)Cc1cccc2ccccc12
21.1 pg

Please report MCH for the following molecule: CC(S)C(=O)NCC(=O)O (stereo not drawn)
21 pg

Look up MCH of CC(=O)[C@@]1(O)CC[C@H]2[C@@H]3C=C(Cl)C4=CC(=O)CC[C@]4(C)[C@H]3CC[C@@]21C and report it.
20.6 pg

Respond only with MCH recorded for CN(C)CCCN1c2ccccc2Sc2ccc(Cl)cc21
21.1 pg

Tell me its MCH given CCCCNC(=O)NS(=O)(=O)c1ccc(C)cc1 [TOLBUTAMIDE] as the entry.
20.6 pg

Read off the recorded MCH for CCO
21.8 pg

Using known records, supply MCH for CN(CCOc1ccc(CC2SC(=O)NC2=O)cc1)c1ccccn1.O=C(O)/C=C\C(=O)O (stereo not drawn) [ROSIGLITAZONE MALEATE]
21.6 pg

State its MCH: Nc1ccc(Cc2ccc(N)cc2)cc1
21.4 pg

Please supply the value of reported MCH for the item NS(=O)(=O)c1cc(C(=O)O)c(NCc2ccco2)cc1Cl [FUROSEMIDE]
21.2 pg

Give me measured MCH, please, for this molecule: COc1cc2ncnc(Nc3ccc(F)c(Cl)c3)c2cc1OCCCN1CCOCC1
21.4 pg

###

species on record: Rattus norvegicus; test: Open TG-GATES - Regimen: Daily Repeat; format: toxicity, organism-based, Sprague-Dawley; set-up: regimen Daily Repeat, gender Male, age 6 weeks; conditions: in vivo, po, 0 mg/kg, 72 h, tissue Blood, route gavage, dose level Control, time 3 day
For each of the molecules below, state its MCH.
Just the number please, in pg, no unit attached.

Fill in reported MCH for this entry: CCCCNC(=O)NS(=O)(=O)c1ccc(C)cc1 [TOLBUTAMIDE]
20.4

# return recorded MCH for entry Nc1ccc(Cc2ccc(N)cc2)cc1
21.1

Respond only with MCH recorded for CC(=O)[C@@]1(O)CC[C@H]2[C@@H]3C=C(Cl)C4=CC(=O)CC[C@]4(C)[C@H]3CC[C@@]21C
20.3

// Input: NS(=O)(=O)c1cc(C(=O)O)c(NCc2ccco2)cc1Cl [FUROSEMIDE] . Output its MCH only.
21.5

Answer with the recorded MCH of CCN(CC)C(=S)SSC(=S)N(CC)CC only.
20.5

###

organism: Rattus norvegicus; test: Open TG-GATES - Regimen: Daily Repeat; format: toxicity, organism-based, Sprague-Dawley; design: regimen Daily Repeat, gender Male, age 6 weeks; conditions: in vivo, po, 300 mg/kg, 72 h, tissue Blood, route gavage, dose level Middle, time 3 day
OBSERVABLE: MCV
Don't forget the unit after the number, please.

Give a short answer stating reported MCV for CCCCNC(=O)NS(=O)(=O)c1ccc(C)cc1 [TOLBUTAMIDE] .
63.2 fL

Provide only the value of recorded MCV for O=C(O)c1ccccc1Nc1ccccc1 [FENAMIC ACID]
62.8 fL

Using the record for CC(=O)[C@@]1(O)CC[C@H]2[C@@H]3C=C(Cl)C4=CC(=O)CC[C@]4(C)[C@H]3CC[C@@]21C [CHLORMADINONE] , state its measured MCV.
62 fL

Provide one value: measured MCV of CC(S)C(=O)NCC(=O)O (centres undefined) [TIOPRONIN]
62.7 fL
